Assay: PSAC antagonists in infected red cells, primary screen, cell-based, P. falciparum Indochina, OD700, 18 h (AID 1157)
Conditions: P. falciparum Indochina infected erythrocytes, osmotic lysis OD700, 18 h; higher = more signal, called active from +8 up or from −8 down
Hi there, I'd appreciate the recorded z-score for every entry that follows.
The reply should be a number, written without any unit.

The recorded z-score for CCOC(=O)[C@H](CC(C)C)NC(=O)CCC1CC(OC(=O)NCc2cccc3ccccc23)CC2(CCCC(COC(=O)NCCCN3CCCC3=O)O2)O1 (some centres undefined) is 0.295

compound COc1cccc([C@H]2Oc3ccc(OC)cc3C(=NOC[C@@H](O)COCc3ccco3)[C@@H]2O)c1 , z-score observed: -2.01

The recorded z-score for C#CCCCON=C1[C@H]2CCn3c(=O)n(-c4ccccc4)c(=O)n3[C@H]2[C@H](O)[C@@H]2O[C@H]12 is -2.27

Measured z-score of C=CC[C@@H]1C=C[C@H](ON=C(C)CCC(=O)OC[C@H]2O[C@H](C#Cc3ccccc3)C=C[C@@H]2Oc2ccc(C)cc2)[C@@H](CO)O1 : 1.57
